assay: ATG_TCF_b_cat_CIS: Attagene CIS-FACTORIAL HepG2 Assay for human T-Cell-Factor with beta-catenin (TCF/b-cat) (AID 2282965); settings: HepG2 TCF/beta-catenin cis-reporter transcription, actives raise or lower the signal
Active and inactive are the calls of the source. How the source made its calls: active means hit-call score of the fitted dose curve at least 0.9, where 1 is the maximum; inactive means score below 0.9.
Give one outcome, nothing more. List: Yes (active), No (inactive)

Here's what some known entries look like.
// query Hi, do you know how O=C(O)C1CCC(C(=O)O)CC1 (stereo unspecified) came out in this test?
// result No

// query Just curious, what result did `CCCSSCCC` get here?
// result No

// query Can you look up the reported call for `CN(C)c1ccc2nc3ccc(=[N+](C)C)cc-3sc2c1` for me?
// result No

Others:
// query What is the recorded call for this compound in the test? `CC(C)=NNC(N)=S`
// result No

// query Called result for C=C(C)C1CC=C(C)C(OC(C)=O)C1 (stereo unspecified)
// result No

// query Each compound tested received a call. Report the one for `O=C(OCc1ccccc1)c1ccc(O)cc1` .
// result Yes

* * *

experiment: ACEA_ER_80hr: ACEA Biosciences xCELLigence Real-Time Cell Analysis on Estrogen Receptor Agonism for Proliferation (AID 2282667); details: T47D proliferation, impedance (xCELLigence), 80 h
Records with an inconclusive call do not appear. Activity calls are given as the source filed them. How the source made its calls: active means hit-call score of the fitted dose curve at least 0.9, where 1 is the maximum; inconclusive means response in the unintended direction; inactive means score below 0.9.
Your answer must be one of the following: class 1 for active, class 0 for inactive

Take a look at these entries with their results.
// query What did the test return for CCC(C)C(=O)OCCc1ccccc1 (centres undefined) ?
// result class 1

// query Please state the recorded outcome for this compound: `Oc1ccc(-c2ccccc2)c(Cl)c1`
// result class 1

// query Please indicate how the test categorized `c1ccc2c(c1)[nH]c1ccccc12` .
// result class 0

More entries:
// query For `CCCCNC(=S)NCCCC` , what call appears in the results of this test?
// result class 0

* * *

read-out: C-C motif chemokine 2 (Homo sapiens) (UniProt P13500); assay: BSK_KF3CT_MCP1: BioMAP Diversity Plus: KF3CT Assay for Monocyte Chemoattractant Protein 1 (MCP1/CCL2) Biomarker Activity (AID 2283073); conditions: primary human keratinocytes with fibroblasts; actives raise or lower the signal
Activity calls are given as the source filed them. The calls were made as follows: active = hit-call score of the fitted dose curve at least 0.9, where 1 is the maximum; inactive = score below 0.9.
Field 'call' accepts true (1) (active), false (0) (inactive)

// query Recorded test call requested for `C=CCCCCCCCCC=O`
// result false (0)

// query Record lookup: outcome of this test for CCCCCCCCC(CO)CCCCCC (stereo unspecified) ?
// result false (0)

// query Answer briefly: the call reported for `COC(OC)(C(=O)c1ccccc1)c1ccccc1` in this assay.
// result false (0)

// query Just curious, what result did `O=C1CCCCCCCCCCC1` get here?
// result false (0)

// query Please let me know the test result on file for `Oc1ccccc1Cc1ccccc1O` .
// result false (0)

Further cases:
// query Field: outcome | Entry: `C=CC(=O)OCCCCCCCC(C)C`
// result false (0)

// query Hi, sorry to bother you, what did the test record for `CCCCCCCO` ?
// result false (0)

// query Name the outcome recorded for `C[N+](C)(C)CCCNS(=O)(=O)C(F)(F)C(F)(F)C(F)(F)C(F)(F)C(F)(F)C(F)(F)C(F)(F)C(F)(F)F` in the assay.
// result false (0)

* * *

Test: ACEA_ER_AUC_viability: ACEA Biosciences xCELLigence Real-Time Cell Analysis on Estrogen Receptor Agonism for Viability (AID 2283782);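 further: continuous compound exposure with impedance area under curve over 80 h; hit means loss of impedance signal meaning reduced cell growth or viability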
Protocol: ACEA_ER is a cell-based, single-readout assay that uses T47D, a human breast cell line, with measurements taken at 80 hours after chemical dosing in a 96-well plate, although TO2 (mc0.srcf) used a 384-well plate. Differences in plate size can be ignored given data normalization.ACEA_ER_AUC_viability is one of two assay component(s) measured or calculated from the ACEA_ER assay. […]
Inconclusive results are not listed. The source made the active and inactive calls. How the source made its calls: active means hit-call score of the fitted dose curve at least 0.9, where 1 is the maximum; inconclusive means response in the unintended direction; inactive means score below 0.9.
RESULT TYPE: AC50

Illustrative cases are given below, each with its answer.
// query Name the recorded AC50 for `CC(C)[N+](C)(CCOC(=O)C1c2ccccc2Oc2ccccc21)C(C)C` .
// result inactive

// query Reported AC50 for `C=CCNCC=C` : what is it?
// result 50.5 µM (active)

// query Recorded AC50 of `CC(C)C(=O)OCCc1ccccc1` , please.
// result inactive

// query For the compound `CCc1occc(=O)c1O` , what AC50 is on record?
// result inactive

// query Look at this compound and give its reported AC50. `CCCCNS(=O)(=O)c1ccccc1`
// result inactive

// query # input compound: `CC(C)CO` ; wanted: its AC50
// result inactive

// query Given the compound `C=CC(=O)OCCCCCCCCCC` , what is its reported AC50?
// result inactive

// query Dear colleague, I am looking for the recorded AC50 of the following compound: CCCC(CC)c1ccccc1 (stereo unspecified)
// result inactive

// query Look at this compound and give its reported AC50. `CC1(C)CC(O)CC(C)(C)N1[O]`
// result inactive

// query Which AC50 reading was recorded for the compound `CC/C=C\C/C=C\C/C=C\CCCCCCCC(=O)OC` ?
// result inactive

Note: attention shifts to another entry.
// query Quick one: AC50 of `Cn1cccc1` ?
// result inactive

* * *

test: ATG_PPRE_CIS: Attagene CIS-FACTORIAL HepG2 Assay for human Peroxisome Proliferator-activated Response Element (PPRE) (AID 2282958); details: HepG2 PPRE cis-element reporter, Attagene transcription factor profiling; actives raise or lower the signal
The source made the active and inactive calls. Rule for the calls: active = hit-call score of the fitted dose curve at least 0.9, where 1 is the maximum; inactive = score below 0.9.
Classes to choose from: TRUE (active), FALSE (inactive)

Would you please look over these solved cases?
// query // outcome(item) with item = `CC(=O)OC1CCCCC1`
// result FALSE

// query Hello, I am checking results. What call was entered for `CCCCCCCCCCCCCC(=O)OC(C)C` ?
// result FALSE

Lab note: next compound to report on.
// query Per the records of this test, what outcome belongs to `C=CCCCCCCCCC=O` ?
// result TRUE

* * *

experiment: ATG_ERE_CIS: Attagene CIS-FACTORIAL HepG2 Assay for Estrogen Response Element (ERE) (AID 2282940); conditions: HepG2 ERE cis-reporter, Attagene RNA transcript; actives raise or lower the signal
The source made the active and inactive calls. Rule for the calls: active = hit-call score of the fitted dose curve at least 0.9, where 1 is the maximum; inactive = score below 0.9.
Outcomes you can answer with include only these: TRUE for active, FALSE for inactive

// query Please state the recorded outcome for this molecule: CC(=O)OC1CCCCC1C(C)(C)C (configuration not stated)
// result FALSE

// query Would you mind telling me which call this test gave `Nc1ccc(Cl)c(N)c1` ?
// result FALSE

// query What classification did `CCOC(=O)CC(=O)c1ccccc1` end up with in this test?
// result FALSE

---
// query Check the results log: what was the call for `CCN(CC)c1cccc(C)c1` ?
// result FALSE

// query Please state the recorded outcome for this molecule: `CCCCNC(=S)NCCCC`
// result FALSE

// query # outcome recorded in this test, key = `CCCCCCCCCCCC(=O)OCC`
// result FALSE

// query Record lookup: outcome of this test for `CCCCCCCO` ?
// result TRUE

// query Call for entry `CC(C)OC(=O)c1ccccc1` :
// result FALSE

* * *

molecular target: Estrogen receptor (Homo sapiens) (UniProt P03372); experiment: ATG_ERa_TRANS: Attagene TRANS-FACTORIAL HepG2 Assay for human Estrogen Receptor alpha (ERa) (AID 2282970); conditions: HepG2 Attagene TRANS ERa GAL4 reporter, mRNA
Sequence (P03372 whole entry, looked up, the tested form may be a part): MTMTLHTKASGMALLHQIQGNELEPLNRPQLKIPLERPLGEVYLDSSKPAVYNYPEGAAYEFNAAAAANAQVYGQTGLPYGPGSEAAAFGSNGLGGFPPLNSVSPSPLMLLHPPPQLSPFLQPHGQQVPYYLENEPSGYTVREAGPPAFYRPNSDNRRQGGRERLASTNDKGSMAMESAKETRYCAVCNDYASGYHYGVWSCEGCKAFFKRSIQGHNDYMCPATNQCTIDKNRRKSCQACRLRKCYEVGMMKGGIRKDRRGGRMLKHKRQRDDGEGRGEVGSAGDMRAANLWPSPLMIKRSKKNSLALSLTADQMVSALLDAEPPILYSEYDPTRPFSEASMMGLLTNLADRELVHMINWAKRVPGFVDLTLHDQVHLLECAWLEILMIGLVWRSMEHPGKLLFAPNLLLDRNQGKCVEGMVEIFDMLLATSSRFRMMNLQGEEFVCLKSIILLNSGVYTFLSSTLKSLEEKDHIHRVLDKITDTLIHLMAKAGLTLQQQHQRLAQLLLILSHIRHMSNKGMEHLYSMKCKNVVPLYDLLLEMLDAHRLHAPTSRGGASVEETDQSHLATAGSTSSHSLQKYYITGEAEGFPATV
Inconclusive results are not listed. Calls of active or inactive are those of the source. The calls were made as follows: active = hit-call score of the fitted dose curve at least 0.9, where 1 is the maximum; inconclusive = response in the unintended direction; inactive = score below 0.9.
// classify into yes = active, no = inactive

Completed entries (count: 6):
// query Record lookup: outcome of this test for `COC(=O)C=Cc1ccccc1` ?
// result no

// query Hi, do you know how `CC/C=C\C/C=C\C/C=C\CCCCCCCC(=O)OC` came out in this test?
// result no

// query State the result this test recorded for `CCCCc1ccc(Cl)cc1` .
// result no

// query Can you look up the reported call for CC1CCC(C(C)(C)S)C(=O)C1 (centres undefined) for me?
// result no

// query Call for entry `Nc1ccc(C(=O)O)cc1` :
// result no

// query Called result for `CC(C)[N+](C)(CCOC(=O)C1c2ccccc2Oc2ccccc21)C(C)C`
// result no

Continuing:
// query State the result this test recorded for C=CC(C)(CCC=C(C)C)OC(=O)C=Cc1ccccc1 (centres undefined) .
// result yes

// query For `CCCCCCCO` , what call appears in the results of this test?
// result yes

// query Dear colleague, could you share the recorded outcome for `N=C1C=CC(=C(c2ccc(N)cc2)c2ccc(N)cc2)C=C1` when you have a moment?
// result no

// query Which outcome was assigned to `CC(C)(C)NC(=O)[C@H]1CC[C@H]2[C@@H]3CC[C@H]4NC(=O)C=C[C@]4(C)[C@H]3CC[C@]12C` in this test?
// result no

// query Entry `COCC(=O)O` : call = ?
// result no

// query Which outcome was assigned to `CCCCCOC(=O)CCCCC` in this test?
// result no

// query Just curious, what result did `O=C1CCCCCCCCCCCN1` get here?
// result no

// query Fill in: this test's call for `N#Cc1ccc(C(c2ccc(C#N)cc2)n2cncn2)cc1` is ___
// result no

// query Each molecule tested received a call. Report the one for `COC(C=C(C)CCC=C(C)C)OC` .
// result no

// query What did the test return for `CCCCCC1=CCCC1=O` ?
// result no

// query For `CC(C)c1cc(C(C)C)cc(C(C)C)c1` , which call appears in the assay record?
// result yes

// query Name the outcome recorded for `OCCCc1ccccc1` in the assay.
// result no

// query Given CC(=O)/C=C/C1C(C)=CCCC1(C)C (centres undefined) , state the outcome it received in this test.
// result yes

// query Fill in: this test's call for CCCCC(CC)COS(=O)(=O)O (centres undefined) is ___
// result no
